Answer each item with its documented PBM binding z-score.
test system: RXRa DBDmut IVT, anti-RXR (DBD mutation: RXRa K156A/R161A, NR concentration 90 nM); experiment: PBM binding z-score (relative to random genomic background probes); higher = stronger binding; sequences stand for … in GC…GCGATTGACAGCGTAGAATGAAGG
Give a plain numeric answer without units written out.

Query block: Identify the measured PBM binding z-score of `CATGCTAGGTCATGGTCAGCTAATCTACAGTATG` for RXRa DBDmut IVT, anti-RXR (DBD mutation: RXRa K156A/R161A, NR concentration 90 nM).
Result block: 1.74

Query block: Identify the measured PBM binding z-score of `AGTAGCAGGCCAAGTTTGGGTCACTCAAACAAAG` for RXRa DBDmut IVT, anti-RXR (DBD mutation: RXRa K156A/R161A, NR concentration 90 nM).
Result block: -0.435

Query block: I'm curious: which PBM binding z-score was measured for `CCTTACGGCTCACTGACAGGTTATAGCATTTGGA` tested on RXRa DBDmut IVT, anti-RXR (DBD mutation: RXRa K156A/R161A, NR concentration 90 nM)?
Result block: 0.689

Query block: Form: Entry = `TGTCGGAGGACACGAAAGGTCAGAGCTCGACATC` | System = RXRa DBDmut IVT, anti-RXR (DBD mutation: RXRa K156A/R161A, NR concentration 90 nM) | PBM binding z-score = ____
Result block: -0.334

Query block: Lab request: please report PBM binding z-score under test system RXRa DBDmut IVT, anti-RXR (DBD mutation: RXRa K156A/R161A, NR concentration 90 nM) for `CCTACTGGGCCATTCAGCGGTCATTGATCATATG`
Result block: -0.0941

Query block: What is its PBM binding z-score for RXRa DBDmut IVT, anti-RXR (DBD mutation: RXRa K156A/R161A, NR concentration 90 nM)? Entry: `GCAGATAGGTAATACAAGGTGAAAGTCCGATTGT`
Result block: -0.0602

Query block: Item `ACTAGCAGGCCAAATTTGGGTCACTCAAACAAAG` with RXRa DBDmut IVT, anti-RXR (DBD mutation: RXRa K156A/R161A, NR concentration 90 nM) - PBM binding z-score?
Result block: 0.0631

Query block: What is its PBM binding z-score for RXRa DBDmut IVT, anti-RXR (DBD mutation: RXRa K156A/R161A, NR concentration 90 nM)? Entry: `CAGCCTAGGTCAGGTCCAGTATAGGAGGAACGTT`
Result block: -0.0428

Query block: Could you share what PBM binding z-score was measured for `ATCTCAAGGTAAAAGTTCAGTGAATCCCGAGGAT` , tested on RXRa DBDmut IVT, anti-RXR (DBD mutation: RXRa K156A/R161A, NR concentration 90 nM)?
Result block: 0.614

Query block: Lab request: please report PBM binding z-score under test system RXRa DBDmut IVT, anti-RXR (DBD mutation: RXRa K156A/R161A, NR concentration 90 nM) for `ACTATAAGTTGACTTAGGGCAACCGATACGACGC`
Result block: 0.718

Query block: // fetch RXRa DBDmut IVT, anti-RXR (DBD mutation: RXRa K156A/R161A, NR concentration 90 nM) PBM binding z-score for `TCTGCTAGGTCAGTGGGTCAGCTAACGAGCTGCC`
Result block: 0.404

Query block: Request - read-out PBM binding z-score | tested on RXRa DBDmut IVT, anti-RXR (DBD mutation: RXRa K156A/R161A, NR concentration 90 nM) | sequence `GCTAGTTGGTCGGTAAAAGGTCACACACCGGTCG`
Result block: 0.311

Query block: Provide value of PBM binding z-score for this record tested with RXRa DBDmut IVT, anti-RXR (DBD mutation: RXRa K156A/R161A, NR concentration 90 nM): `CCTGCTTGGTCATGGTCAGCTAATCTACAGTATG`
Result block: 0.252

Query block: I'm curious: which PBM binding z-score was measured for `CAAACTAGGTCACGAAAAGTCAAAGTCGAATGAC` tested on RXRa DBDmut IVT, anti-RXR (DBD mutation: RXRa K156A/R161A, NR concentration 90 nM)?
Result block: 1.53

Query block: Provide the documented PBM binding z-score with RXRa DBDmut IVT, anti-RXR (DBD mutation: RXRa K156A/R161A, NR concentration 90 nM) as the system for `AGTCCAAGTTCATCTAGGTAACGTAAGATATGCT`
Result block: 4.78

Query block: Can you look up PBM binding z-score on RXRa DBDmut IVT, anti-RXR (DBD mutation: RXRa K156A/R161A, NR concentration 90 nM) for `CCTACTGGGCCCCGAAAGGTCATTGATTCAGTGA` ?
Result block: -0.457

Query block: Which measured PBM binding z-score belongs to `GCAGTCAGGTGAAACGCAGGTAACTCAGGGTGGC` , tested on RXRa DBDmut IVT, anti-RXR (DBD mutation: RXRa K156A/R161A, NR concentration 90 nM)?
Result block: -0.235

Query block: Entry `CTCGAAAGGTCGTGCTCTGGTGAGTATACCAAAC` , system RXRa DBDmut IVT, anti-RXR (DBD mutation: RXRa K156A/R161A, NR concentration 90 nM): what PBM binding z-score was measured?
Result block: 2.01

Query block: Notebook entry, RXRa DBDmut IVT, anti-RXR (DBD mutation: RXRa K156A/R161A, NR concentration 90 nM) assay: PBM binding z-score of `ATCGAAAGGTCGAGGTGAGTCTAGAGAAAGGGAA` = ?
Result block: 0.715

Query block: Notebook entry, RXRa DBDmut IVT, anti-RXR (DBD mutation: RXRa K156A/R161A, NR concentration 90 nM) assay: PBM binding z-score of `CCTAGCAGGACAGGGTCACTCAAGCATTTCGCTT` = ?
Result block: 1.06

Query block: Value wanted: PBM binding z-score (RXRa DBDmut IVT, anti-RXR (DBD mutation: RXRa K156A/R161A, NR concentration 90 nM)) of entry `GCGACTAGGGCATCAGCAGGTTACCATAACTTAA`
Result block: 0.0692

Query block: Fill in the recorded PBM binding z-score for this sequence, with RXRa DBDmut IVT, anti-RXR (DBD mutation: RXRa K156A/R161A, NR concentration 90 nM) as test system: `TCTCGGAGGACACGAAGGTTAGAGCTTTCCAGAG`
Result block: 0.169

Query block: What reported PBM binding z-score corresponds to `CAAACTAGGTCAGAGGTCAAAGTCGAGCCAACCA` on RXRa DBDmut IVT, anti-RXR (DBD mutation: RXRa K156A/R161A, NR concentration 90 nM)?
Result block: 2.96

Query block: Which PBM binding z-score is reported with RXRa DBDmut IVT, anti-RXR (DBD mutation: RXRa K156A/R161A, NR concentration 90 nM) for this entry: `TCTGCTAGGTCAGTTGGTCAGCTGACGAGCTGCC` ?
Result block: 0.382

Query block: Form entry - test system: RXRa DBDmut IVT, anti-RXR (DBD mutation: RXRa K156A/R161A, NR concentration 90 nM); read-out: PBM binding z-score; sequence: `CCTAGCAGGCCAGTCTGGGTCACTCAAGGCTTGA`
Result block: -0.216

Query block: Give PBM binding z-score (RXRa DBDmut IVT, anti-RXR (DBD mutation: RXRa K156A/R161A, NR concentration 90 nM)) of the following sequence: `GCTCGGAGGACAAGGTCCGAGCTTTGTCCGTAGA`
Result block: -0.26
